- assay: Phase I study CXR1002-001: plasma pharmacokinetics (LC-MS/MS)
- Type: in vivo, human
- particulars: human, plasma, oral, 450 mg, Patient 016 Dose 450 mg; 340 hr; read-out: Concentration
measureName: concentration at 340 h (µM)
Express the result in µM but write the number alone.

Item `O=C(O)C(F)(F)C(F)(F)C(F)(F)C(F)(F)C(F)(F)C(F)(F)C(F)(F)F` has what recorded concentration at 340 h?
442

---

- assay: Phase I study CXR1002-001: plasma pharmacokinetics (LC-MS/MS)
- Assay type: in vivo, human
- particulars: human, plasma, po, 1000 mg, Patient 041, 1000 mg weekly oral dose, Time 504 hr (Day 22); read-out: Concentration (plasma level)
measureName: concentration at 504 hr (µM)
Express the result in µM but write the number alone.

Item `O=C(O)C(F)(F)C(F)(F)C(F)(F)C(F)(F)C(F)(F)C(F)(F)C(F)(F)F` has what recorded concentration at 504 hr?
558
